Attribution: ChEMBL document CHEMBL4689842

- Tested on: Fibroblast
- ASSAY_PROTOCOL: Multiplex assay against human fibroblast
- Format: toxicity, cell-based
- CONDITION_PARAMETERS: 24 h, 1 µM, compound concentration 1 uM, replicate 1
PROPERTY_MEASURED: Population Pyknosed Nuclei (%)
Please reply with the bare figure in % and do not write the unit itself.

Below, each entry is followed by its recorded Population Pyknosed Nuclei (%) result.
                                   compound  measure_unit  reported_measurement
0  C=CC(=O)Nc1ccc2ncnc(Nc3ccc(OCc4cccc(F)c4)c(Cl)c3)c2c1.Cc1ccc(S(=O)(=O)O)cc1             %                    31
1  COc1cccc([C@@H](C)NCCCc2ccccc2Cl)c1.Cl [TECALCET HYDROCHLORIDE]             %                    21
2  Cc1csc2c(N[C@@H](C)CN3CCN(S(=O)(=O)c4ccc(Cl)c(Cl)c4)CC3)ncnc12             %                    29
3  c1cn2cc(-c3ccc4cn[nH]c4c3)nc(Nc3ccc(N4CCOCC4)cc3)c2n1             %                    16
4  Cc1cc(C)cc(-c2cnc3cc(Cl)c(-c4cccc(O)c4)cc3c2OCCCN)c1             %                    22
5  CC(C)NCC(O)COc1ccc(CCOCC2CC2)cc1.Cl (stereo not drawn) [BETAXOLOL HYDROCHLORIDE]             %                    24
6  CN(C)CC#Cc1ccc(OCCCc2sc(N3CCc4cccc(C(=O)Nc5nc6ccccc6s5)c4C3)nc2C(=O)O)c(F)c1             %                    36

Proceeding to the next compound to report its Population Pyknosed Nuclei (%).
Q. Population Pyknosed Nuclei (%) of `Cc1c(-c2ccc(O)cc2)n(Cc2ccc(OCCN3CCCCCC3)cc2)c2ccc(O)cc12` on Fibroblast?
A. 23

====

- Tested on: HEK-293T
- ASSAY_PROTOCOL: Incucyte cell viability with HEK293T; also: filed as whole numbers so only -1 and 0 and 1 occur
- Assay type: toxicity, cell-based
- CONDITION_PARAMETERS: human, 6 h, 10 µM, compound concentration 10 uM, replicate number 1, timepoint 6 hours
// Growth Rate lookup, one value per entry
Reply with the value as a number alone.

Some solved cases for reference:
>>> print(df.to_string())
                                   molecule  system_tested  reported_measurement
0      O=c1nc(-c2ccccn2)sc2ccccc12 [BTZO-1]       HEK-293T                     1
1    N[C@H](C(=O)O)c1ccc(C(=O)O)c(C(=O)O)c1       HEK-293T                     1
2  COc1cc(-n2cnc3cc(-c4ccc(Cl)cc4)sc3c2=O)ccc1OCCN1CCCC1       HEK-293T                     0
3  CNCCC(Oc1ccc(C(F)(F)F)cc1)c1ccccc1.Cl (stereo not given) [FLUOXETINE HYDROCHLORIDE]       HEK-293T                     0

Pending molecule:
Q. What value of Growth Rate has been reported for the following molecule? C=C1/C(=C\C=C2/CCC[C@]3(C)[C@@H]([C@H](C)/C=C/C=C/C(O)(CC)CC)CC[C@@H]23)C[C@@H](O)C[C@@H]1O [SEOCALCITOL]
A. 1
